Each recorded value in this set is attributed to paper PMC11284795.

Target: T1, FGFR1c/KLB: ectodomain of human FGFR1c fused to Fc, with human beta-klotho (human, UniProt P11362 22-376; Q86Z14 53-996)
T1 construct: ectodomain of human fibroblast growth factor receptor 1, c-isoform (FGFR1c); human beta-klotho (KLB, printed there as BKL) protein; FGFR-Fc on Protein A acceptor beads, KLB added in solution; the bought KLB is, as I recall, the extracellular domain; also called FGF-receptor complex; source: bought: R&D Systems (both proteins)
Experiment: AlphaScreen or HTRF; competition: biotinylated FGF21 on streptavidin donor beads, ectodomain of human FGFR1c, FGFR2c, FGFR3c or FGFR4 fused to Fc on Protein A acceptor beads, human KLB protein added; signal inhibited by increasing doses of FGF21 analog; 0.1% ovalbumin; indirect measure of binding affinity, reported as IC50
Conditions: both partners purified
Each record here notes measured pIC50.
Answer as a number with no unit attached.

Met-FGF21 (1) (ligand, human, single amino acid N-terminal extension (-1M), giving the N-terminus MHPIP; human FGF21, mature 181-residue hormone (N-terminus HPIP, C-terminus Ser181); numbers count on: the mature protein; also called human FGF21 with N-terminal Met extension; -1M; source: E. coli BL21 (DE3)-derived strain, inclusion bodies, purified (Q Sepharose FF, Phenyl FF, Source 30Q where needed)) MHPIPDSSPLLQFGGQVRQRYLYTDDAQQTEAHLEIREDGTVGGAADQSPESLLQLKALKPGVIQILGVKTSRFLCQRPDGALYGSLHFDPEACSFRELLLEDGYNVYQSEAHGLPLHLPGNKSPHRDPAPRGPARFLPLPGLPPALPEPPGILAPQPPDVGSSDPLSMVGPSQGRSPSYAS; 6.56

Using known records, supply pIC50 for FGF21 analog 17 (-1A, 121Q, 168L, 180C, des181; C18 fatty diacid on 180C) (ligand, human, C18 diacid gGlu-OEG-OEG-C2DA-Ac side chain on Cys180, single amino acid N-terminal extension (-1A), giving the N-terminus AHPIP; human FGF21, mature hormone without its last residue Ser181; numbers count on: the mature protein; source: E. coli BL21 (DE3)-derived strain, inclusion bodies, purified; side chain conjugated to the Cys, purified by anion exchange (MonoQ)) AHPIPDSSPLLQFGGQVRQRYLYTDDAQQTEAHLEIREDGTVGGAADQSPESLLQLKALKPGVIQILGVKTSRFLCQRPDGALYGSLHFDPEACSFRELLLEDGYNVYQSEAHGLPLHLPGQKSPHRDPAPRGPARFLPLPGLPPALPEPPGILAPQPPDVGSSDPLSLVGPSQGRSPSYC
5.79
